System: maximum electroshock seizure (MES) model
Assay: Maximum electroshock seizure (MES) model test
Assay type: in vivo, mice
Details: Mus musculus, po, 1 h, 100 mg/kg oral, Slc: ddY male mice, 3 per group, electrical stimulation 1 hour after administration; inhibition of hind limb extension; read-out: MES (positive number/tested number) (converted)
# key: entry, value: responders at 100 mg/kg
Form entry: value (%) — number only.

The examples below pair each entry with its known result.
What value of responders at 100 mg/kg has been reported for the following compound? CNC(=O)Cc1c(F)cccc1-c1ccccc1
100

What about CNC(=O)C(OC)c1ccccc1-c1ccccc1F (stereo not drawn) ?
66.7

What about CC(C)(C)NC(=O)Cc1ccccc1-c1ccccc1F ?
0

What about NC(=O)Cc1c(F)cccc1-c1cccc(F)c1 [Example 140, 2-(3,3′-difluorobiphenyl-2-yl)acetamide] ?
100

What about NC(=O)C1(c2ccccc2-c2cccc(F)c2)CC1 ?
0

***
What value of responders at 100 mg/kg has been reported for the following compound? NC(=O)Cc1ccccc1-c1cccc(Cl)c1Cl
66.7

What about NC(=O)Cc1ccccc1-c1cc(C(F)(F)F)ccc1F ?
66.7

What about NC(=O)Cc1ccccc1-c1ccc(OC(F)(F)F)c(F)c1 ?
100

What about NC(=O)Cc1cc(C(F)(F)F)ccc1-c1ccc(Cl)cc1 ?
0

What about CN(C)C(=O)Cc1ccccc1-c1ccccc1C(F)(F)F ?
33.3

What about NC(=O)Cc1ccccc1-c1cc(C(F)(F)F)ccc1Cl ?
33.3

What about CCNC(=O)Cc1cc(Cl)ccc1-c1ccccc1 ?
0

What about NC(=O)Cc1cc(Cl)ccc1-c1ccccc1 ?
66.7

What about NC(=O)C(O)c1ccccc1-c1cc(F)cc(Cl)c1 (stereo not drawn) [Example 191] ?
100

What about NC(=O)Cc1ccc(F)cc1-c1ccc(F)cc1 ?
0

What about CS(=O)(=O)c1ccc(-c2ccccc2CC(N)=O)cc1 ?
0

What about CN(C)C(=O)Cc1cc(Cl)ccc1-c1ccccc1F ?
0

What about NC(=O)Cc1ccccc1-c1ccc(C(F)(F)F)cc1C(F)(F)F ?
66.7

What about NC(=O)Cc1ccc([N+](=O)[O-])cc1-c1ccccc1 ?
33.3

What about NC(=O)Cc1ccccc1-c1cc(C(F)(F)F)cc(C(F)(F)F)c1 ?
66.7

What about CNC(=O)Cc1ccccc1-c1cc(F)cc(C(F)(F)F)c1 ?
0

====

# key: entry, value: responders at 100 mg/kg
Tested on: maximum electroshock seizure (MES) model
Assay: Maximum electroshock seizure (MES) model test
Format: in vivo, mice
Conditions: Mus musculus, po, 1 h, 100 mg/kg oral, Slc: ddY male mice, 3 per group, electrical stimulation 1 hour after administration; inhibition of hind limb extension; read-out: MES (positive number/tested number) (converted)
Answer with the figure and its unit, nothing else.

What value of responders at 100 mg/kg has been reported for the following compound? NC(=O)C(O)c1ccccc1-c1ccccc1F (single isomer, unassigned) [Example 213]
100%

What about CC(C(N)=O)c1ccccc1-c1cccc(F)c1 (centres unmarked) [Example 175, 2-(3′-fluorobiphenyl-2-yl)propanamide] ?
66.7%

What about NC(=O)Cc1ccccc1-c1ccccc1Cl [Example 16, 2-(2′-chlorobiphenyl-2-yl)acetamide] ?
100%

***
What value of responders at 100 mg/kg has been reported for the following compound? NC(=O)C(O)c1ccccc1-c1cccc(F)c1 (centres unmarked) [Example 178]
100%

What about NC(=O)C(O)c1ccccc1-c1cccc(Cl)c1 (centres unmarked) ?
100%

What about NC(=O)Cc1ccccc1-c1cc(Cl)ccc1C(F)(F)F ?
100%

What about CNC(=O)Cc1ccc(F)cc1-c1cc(Cl)cc(Cl)c1 ?
66.7%

What about NC(=O)C(O)c1ccc(F)cc1-c1ccccc1 (centres unmarked) ?
100%

What about N#Cc1ccc(Cl)cc1-c1ccccc1CC(N)=O ?
0%

What about CNC(=O)Cc1ccccc1-c1cccc(F)c1 ?
100%

What about CNC(=O)Cc1ccccc1-c1ccccc1C(F)(F)F ?
100%

What about COC(C(=O)N(C)C)c1ccccc1-c1ccc(F)cc1 (centres unmarked) ?
100%

What about NC(=O)C(F)(F)c1ccccc1-c1ccccc1 [Example 174, 2-(biphenyl-2-yl)-2,2-difluoroacetamide] ?
100%

====

Test system: maximum electroshock seizure (MES) model
Experiment: Maximum electroshock seizure (MES) model test
Format: in vivo, mice
Settings: Mus musculus, po, 1 h, 100 mg/kg oral, Slc: ddY male mice, 3 per group, electrical stimulation 1 hour after administration; inhibition of hind limb extension; read-out: MES (positive number/tested number) (converted)
# key: entry, value: responders at 100 mg/kg
Form entry: value (%) — number only.

Lookup: responders at 100 mg/kg / maximum electroshock seizure (MES) model / NC(=O)Cc1ccccc1-c1ccc(F)c(F)c1 [Example 21, 2-(3′,4′-difluorobiphenyl-2-yl)acetamide]
100

***
Lookup: responders at 100 mg/kg / maximum electroshock seizure (MES) model / NC(=O)Cc1ccccc1-c1cccc(F)c1Cl
66.7

What about CNC(=O)Cc1ccccc1-c1cc(F)ccc1C(F)(F)F ?
100

What about CNC(=O)Cc1ccccc1-c1cccc(SC)c1 ?
0

What about NC(=O)C(O)c1ccccc1-c1ccccc1F (centres unmarked) [Example 60] ?
100

====

# key: entry, value: responders at 100 mg/kg
Tested on: maximum electroshock seizure (MES) model
Experiment: Maximum electroshock seizure (MES) model test
Type: in vivo, mice
Details: Mus musculus, po, 1 h, 100 mg/kg oral, Slc: ddY male mice, 3 per group, electrical stimulation 1 hour after administration; inhibition of hind limb extension; read-out: MES (positive number/tested number) (converted)
Answer with the figure and its unit, nothing else.

The examples below pair each entry with its known result.
Lookup: responders at 100 mg/kg / maximum electroshock seizure (MES) model / CN(C)C(=O)Cc1ccccc1-c1ccc(F)cc1
100%

What about NC(=O)Cc1ccc(F)cc1-c1cccc(F)c1 ?
100%

What about NC(=O)C(O)c1ccccc1-c1cc(F)ccc1Cl (centres unmarked) ?
100%

What about CN(C)C(=O)Cc1ccccc1-c1ccc(Cl)cc1 ?
100%

***
Lookup: responders at 100 mg/kg / maximum electroshock seizure (MES) model / NC(=O)Cc1cc(F)ccc1-c1ccc(F)cc1 [Example 114, 2-(4,4′-difluorobiphenyl-2-yl)acetamide]
100%

====

Tested on: subcutaneously pentetrazol-injected model (scPTZ)
Experiment: Subcutaneously pentetrazol-injected model (scPTZ) test
Assay type: in vivo, mice
Conditions: 100 mg/kg oral, Slc: ddY male mice, 3 per group, pentetrazol 85 mg/kg s.c. after 1 hour, observed 30 minutes for clonic convulsion
READOUT_KIND: scPTZ (positive number/tested number)

What value of scPTZ (positive number/tested number) has been reported for the following compound? CS(=O)(=O)c1ccc(-c2ccccc2CC(N)=O)cc1 [Example 92]
1/3

***
What value of scPTZ (positive number/tested number) has been reported for the following compound? CS(=O)(=O)c1ccc(-c2ccccc2CC(N)=O)cc1 [Example 77]
2/3

What about NC(=O)C(F)c1ccccc1-c1ccccc1 (single isomer, unassigned) [Example 209, 2-(Biphenyl-2-yl)-2-fluoroacetamide] ?
2/3

What about NC(=O)C(F)c1ccccc1-c1ccccc1 (single isomer, unassigned) [Example 210, 2-(Biphenyl-2-yl)-2-fluoroacetamide] ?
3/3

What about NC(=O)[C@@H](O)c1ccccc1-c1cc(Cl)cc(Cl)c1 [Example 216] ?
1/3

What about NC(=O)[C@@H](O)c1ccccc1-c1ccccc1 [Example 208, 2-(biphenyl-2-yl)-2S-hydroxyacetamide] ?
2/3

What about NC(=O)C(O)c1ccccc1-c1ccccc1F (single isomer, unassigned) [Example 214] ?
1/3

What about NC(=O)C(O)c1ccccc1-c1cc(F)cc(Cl)c1 (single isomer, unassigned) [Example 218] ?
2/3

What about NC(=O)C(O)c1ccccc1-c1cccc(F)c1 (single isomer, unassigned) [Example 212] ?
2/3

What about NC(=O)C(O)c1ccccc1-c1cc(F)cc(Cl)c1 (single isomer, unassigned) [Example 217] ?
3/3

====

Tested on: maximum electroshock seizure (MES) model
Experiment: Maximum electroshock seizure (MES) model test
Format: in vivo, mice
Settings: Mus musculus, po, 1 h, 100 mg/kg oral, Slc: ddY male mice, 3 per group, electrical stimulation 1 hour after administration; inhibition of hind limb extension; read-out: MES (positive number/tested number) (converted)
READOUT_KIND: responders at 100 mg/kg (%)
Form entry: value (%) — number only.

The examples below pair each entry with its known result.
What value of responders at 100 mg/kg has been reported for the following compound? CNC(=O)C1(c2ccccc2-c2ccccc2F)CC1 [Example 157]
100

What about NC(=O)C(O)c1ccccc1-c1ccccc1Cl (single isomer, unassigned) [Example 220] ?
100

What about NC(=O)Cc1ccc(Cl)cc1-c1cccc(Cl)c1 [Example 127] ?
66.7

What about CCNC(=O)Cc1ccccc1-c1ccccc1F [Example 29] ?
66.7

What about NC(=O)Cc1cc(F)ccc1-c1ccccc1F [Example 46, 2-(2′,4-difluorobiphenyl-2-yl)acetamide] ?
100

What about CC(C(N)=O)c1ccccc1-c1cccc(Cl)c1 (stereo not shown) [Example 177] ?
0

What about CNC(=O)Cc1cc(F)ccc1-c1ccc(Cl)cc1 [Example 132] ?
100

What about COC(C(=O)N(C)C)c1ccccc1-c1ccccc1F (stereo not shown) [Example 202] ?
66.7

What about NC(=O)Cc1ccc(C(F)(F)F)cc1-c1ccccc1 [Example 32] ?
100

Now look at this one.
What value of responders at 100 mg/kg has been reported for the following compound? N#Cc1ccc(-c2ccccc2CC(N)=O)c(F)c1 [Example 106]
0
